The measured values listed here are drawn from patent US20220274965A1.

For each record, write down the corresponding IC50.
- Tested on: hPIV-3 strain JS
- Assay info: Haemagglutination inhibition (HI) assay with human red blood cells
- Type: biochemical
- Experimental setup: hPIV3 JS
Give the value, in units of µM, as a plain number.

[Q] Name the recorded IC50 of the molecule listed here: CC(=O)N[C@H]1[C@H]([C@H](O)[C@H](O)CO)OC(C(=O)O)=C[C@@H]1n1cc(-c2ccccc2NC(=O)CNS(=O)(=O)c2cccc([N+](=O)[O-])c2)nn1
[A] 15.4

[Q] Name the recorded IC50 of the molecule listed here: N#Cc1ccc2nn([C@H]3C=C(C(=O)O)O[C@@H]([C@H](O)[C@H](O)CO)[C@@H]3NC(=O)C(F)(F)F)cc2c1
[A] 133

----------
- Target of assay: hPIV-3 strain C243 neuraminidase (UniProt P08492, species not given/STRAIN_C243)
- Sequence (P08492 whole entry, change not shown): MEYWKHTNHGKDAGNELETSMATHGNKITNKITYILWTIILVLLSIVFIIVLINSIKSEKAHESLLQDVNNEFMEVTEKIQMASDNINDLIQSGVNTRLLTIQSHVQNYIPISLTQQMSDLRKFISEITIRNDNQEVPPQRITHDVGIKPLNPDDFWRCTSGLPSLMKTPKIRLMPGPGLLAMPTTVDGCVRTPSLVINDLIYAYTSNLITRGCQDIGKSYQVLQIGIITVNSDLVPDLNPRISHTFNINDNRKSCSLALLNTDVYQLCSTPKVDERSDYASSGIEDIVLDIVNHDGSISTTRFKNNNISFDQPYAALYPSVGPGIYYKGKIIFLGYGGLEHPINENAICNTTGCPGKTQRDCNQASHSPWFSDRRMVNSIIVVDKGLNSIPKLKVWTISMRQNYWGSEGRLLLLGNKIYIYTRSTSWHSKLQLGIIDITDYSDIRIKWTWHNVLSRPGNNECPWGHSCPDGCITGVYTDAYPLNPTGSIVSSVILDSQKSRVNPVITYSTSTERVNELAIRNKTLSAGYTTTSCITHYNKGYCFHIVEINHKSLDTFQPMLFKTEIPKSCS
- Type: biochemical
- Experimental setup: hPIV-3 strain C243; Table 1; read-out: NI (IC50)
Measure name: IC50 (µM)
Give the value, in units of µM, as a plain number.

[Q] Name the recorded IC50 of the molecule listed here: CC(=O)N[C@@H]1[C@@H]([C@@H](O)[C@@H](O)CO)OC(C(=O)O)=C[C@H]1n1cc(-c2ccccc2NC(=O)CCCCCn2cc(CCCc3cn(CCCCCC(=O)Nc4ccccc4-c4cn([C@H]5C=C(C(=O)O)O[C@@H]([C@H](O)[C@H](O)CO)[C@@H]5NC(C)=O)nn4)nn3)nn2)nn1 [IE1826-14]
[A] 8.22

[Q] Name the recorded IC50 of the molecule listed here: CC(=O)N[C@H]1[C@H]([C@H](O)[C@H](O)CO)OC(C(=O)O)=C[C@@H]1n1cc2ccc3ccccc3c2n1 [IE1530-65]
[A] 10.2

[Q] Name the recorded IC50 of the molecule listed here: CC(=O)N[C@H]1[C@H]([C@H](O)[C@H](O)CO)OC(C(=O)O)=C[C@@H]1n1cc(-c2ccccc2NC(=O)CCCCCn2cc(C(=O)O)nn2)nn1 [IE1826-34]
[A] 16.7

[Q] Name the recorded IC50 of the molecule listed here: O=C(O)C1=C[C@H](n2nnc3c4ccccc4ccc32)[C@@H](NC(=O)C(F)(F)F)[C@H]([C@H](O)[C@H](O)CO)O1 [IE1778-74]
[A] 0.568

[Q] Name the recorded IC50 of the molecule listed here: CC(=O)N[C@H]1[C@H]([C@H](O)[C@H](O)CO)OC(C(=O)O)=C[C@@H]1n1nnc2c3ccccc3ccc21 [IE1778-64]
[A] 4.13

----------
For each record, write down the corresponding log10 of IC50.
- System: hPIV-3 strain JS
- Assay info: In situ ELISA virus growth inhibition in LLC-MK2 cells
- Assay type: cell-based
- Experimental setup: Human respirovirus 3, LLC-MK2; hPIV3 JS
The common logarithm of IC50 in µM is what is listed.

[Q] Name the recorded log10 of IC50 of the molecule listed here: CC(=O)N[C@H]1[C@H]([C@H](O)[C@H](O)CO)OC(C(=O)O)=C[C@@H]1n1cc(-c2ccccc2NC(=O)CNC(=O)c2ccc(-c3ccccc3)cc2)nn1
[A] 1.78

[Q] Name the recorded log10 of IC50 of the molecule listed here: CC(=O)N[C@H]1[C@H]([C@H](O)[C@H](O)CO)OC(C(=O)O)=C[C@@H]1n1cc(-c2ccccc2NC(=O)CCNC(=O)C2CC2)nn1
[A] 2.78

[Q] Name the recorded log10 of IC50 of the molecule listed here: CC(=O)Nc1ccccc1-c1cn([C@H]2C=C(C(=O)O)O[C@@H]([C@H](O)[C@H](O)CO)[C@@H]2NC(C)=O)nn1
[A] 2.61

[Q] Name the recorded log10 of IC50 of the molecule listed here: CC(=O)N[C@H]1[C@H]([C@H](O)[C@H](O)CO)OC(C(=O)O)=C[C@@H]1n1cc(-c2ccccc2NC(=O)CNS(=O)(=O)c2ccc([N+](=O)[O-])cc2)nn1
[A] 2.38

[Q] Name the recorded log10 of IC50 of the molecule listed here: CC(=O)N[C@H]1[C@H]([C@H](O)[C@H](O)CO)OC(C(=O)O)=C[C@@H]1n1cc(-c2ccccc2NC(=O)CNC(=O)c2ccccc2)nn1
[A] 2.53

[Q] Name the recorded log10 of IC50 of the molecule listed here: COc1c(F)c(F)cc(C(=O)Nc2ccccc2-c2cn([C@H]3C=C(C(=O)O)O[C@@H]([C@H](O)[C@H](O)CO)[C@@H]3NC(C)=O)nn2)c1F
[A] 2.88

[Q] Name the recorded log10 of IC50 of the molecule listed here: CC(=O)N[C@H]1[C@H]([C@H](O)[C@H](O)CO)OC(C(=O)O)=C[C@@H]1n1cc(-c2ccccc2NC(=O)CNC(=O)c2ccc(N(C)C)cc2)nn1
[A] 2.55
